Experiment: Selectivity for dihydrofolate reductase enzyme in rat liver and Pneumocystis carinii
Selectivity ratio: recorded values
The answer should be written as a number, with no unit following it.

compound	Selectivity ratio
Nc1nc(N)c2c3c(oc2n1)CN(Cc1ccc(C(=O)N[C@@H](CCC(=O)O)C(=O)O)cc1)CC3	7.9
CN(Cc1coc2nc(N)nc(N)c12)c1ccc(C(=O)NC(CCC(=O)O)C(=O)O)cc1 (stereo unspecified)	12.2
Nc1nc(N)c2c(CNc3ccc(C(=O)NC(CCC(=O)O)C(=O)O)cc3)coc2n1 (stereo unspecified)	1.4
Nc1nc(N)c2c3c(oc2n1)CN(Cc1ccc(Cl)c(Cl)c1)CC3	0.9
Nc1nc(N)c2c3c(oc2n1)CN(Cc1c(Cl)cccc1Cl)CC3	2

Shift focus to the following entry.
[in] Output measured Selectivity ratio for this item: Nc1nc(N)c2c3c(oc2n1)CN(Cc1ccc(Cl)cc1Cl)CC3
[out] 2.3
